B1: Membrane-associated guanylate kinase, WW and PDZ domain-containing protein 2, residues 296 to 340; numbered along this chain, Q86UL8 (parent)
chain: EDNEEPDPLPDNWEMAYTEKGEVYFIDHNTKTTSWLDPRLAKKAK

# Variants of: B1
# experiment-summary: abundance fitness (aPCA) (normalised: wild type 0, dead -1); higher = more abundant; growth selection in yeast, the domain comes from the species named
# details: Homo sapiens
// classify(record): look up abundance fitness in ranges low-valued = under -0.4, mid-valued = from -0.4 up to 0.01, high-valued = 0.01 and over

As a guide, the following entries are already answered.
[
  {
    "variant-annotation": "A16W",
    "qualitative-label": "low-valued"
  },
  {
    "variant-annotation": "N29A",
    "qualitative-label": "high-valued"
  },
  {
    "variant-annotation": "P8Y",
    "qualitative-label": "mid-valued"
  },
  {
    "variant-annotation": "E1L",
    "qualitative-label": "mid-valued"
  },
  {
    "variant-annotation": "I26H",
    "qualitative-label": "low-valued"
  }
]

Given K20D , name the class its abundance fitness places it in.
mid-valued

Given E19T , name the class its abundance fitness places it in.
high-valued
